Measured values drawn from patent US7101890B2 for this set.

Target or system: acetylcholine esterase (Homo sapiens)
Sequence (P06276 29-602): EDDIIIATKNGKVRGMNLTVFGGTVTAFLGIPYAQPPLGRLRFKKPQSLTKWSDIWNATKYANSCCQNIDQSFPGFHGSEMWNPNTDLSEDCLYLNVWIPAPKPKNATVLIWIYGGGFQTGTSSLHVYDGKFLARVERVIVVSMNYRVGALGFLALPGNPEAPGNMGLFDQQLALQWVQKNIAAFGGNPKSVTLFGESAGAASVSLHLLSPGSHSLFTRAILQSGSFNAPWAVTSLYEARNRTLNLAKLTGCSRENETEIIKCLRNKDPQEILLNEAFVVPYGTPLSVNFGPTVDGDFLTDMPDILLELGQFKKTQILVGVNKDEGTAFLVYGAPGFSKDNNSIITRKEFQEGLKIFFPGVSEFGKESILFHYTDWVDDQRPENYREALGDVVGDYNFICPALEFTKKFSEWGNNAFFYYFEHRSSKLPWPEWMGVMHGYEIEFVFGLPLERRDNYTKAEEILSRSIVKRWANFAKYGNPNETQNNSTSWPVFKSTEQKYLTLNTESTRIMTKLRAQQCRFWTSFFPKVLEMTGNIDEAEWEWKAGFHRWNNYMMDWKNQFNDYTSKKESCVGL
Procedure summary: Inhibition of acetylcholine esterase, modified method of Ellmann, human serum
Assay type: biochemical
Particulars: ACHE inhibition; human serum pool; compounds of formula (II); read-out: IC50
Readout name: IC50

Entry under review: COc1ccc2c(c1O)C13C=C[C@@H](O)CC1N(CC3)C2 (stereo partly shown) . Reported IC50? > 150 µM

###

Target or system: acetylcholine esterase (Homo sapiens)
Procedure summary: Inhibition of acetylcholine esterase, modified method of Ellmann, human serum
Assay type: biochemical
Particulars: ACHE inhibition; human serum from a pool of 10 test subjects; 37° C., pH 7.8; compounds of general formula (I)
Readout name: IC50 in μMol

Molecule | Target or system | Test result
CCCCCCN1CCC23C=CC(O)CC2Oc2c(OC)cc(Br)c(c23)C1 (racemic) | acetylcholine esterase (Homo sapiens) | insol.
COc1ccc2c3c1OC1CC(O)C=CC31CC[N+](C)([O-])C2 (single isomer, unassigned; (-)) [Substance 98, (−)-Galanthamine-N-oxide] | acetylcholine esterase (Homo sapiens) | insol.
C#CCN1CCC23C=CC(O)CC2Oc2c(OC)cc(Br)c(c23)C1 (racemic) | acetylcholine esterase (Homo sapiens) | insol.
COc1cc(Br)c2c3c1OC1CC(O)C=CC31CCN(CC#N)C2 (racemic) | acetylcholine esterase (Homo sapiens) | insol.
COc1ccc2c3c1OC1CC(=NN(C)C)C=CC31CCN(C)C2 (racemic) | acetylcholine esterase (Homo sapiens) | insol.

Entry under review: COC(=O)CCC(=O)N1CCC23C=CC(O)CC2Oc2c(OC)cc(Br)c(c23)C1 (racemic) . Reported IC50 in μMol? insol.

Entry under review: COc1ccc2c3c1OC1CC(=NNC(N)=O)C=CC31CCN(C)C2 (racemic) . Reported IC50 in μMol? insol.

Entry under review: COC(=O)N1CCC23C=CC(O)CC2Oc2c(OC)cc(Br)c(c23)C1 (racemic) . Reported IC50 in μMol? insol.

Entry under review: COc1ccc2c3c1O[C@H]1CC(=NO)C=C[C@@]31CCN(C)C2 . Reported IC50 in μMol? insol.

Entry under review: COc1ccc2c3c1OC1CC(=NO)C=CC31CCN(C)C2 (single isomer, unassigned) . Reported IC50 in μMol? insol.

###

Readout name: melting point

Entry under review: O=[N+]([O-])c1ccc(N2CC3CC2CN3Cc2ccccc2)cc1 (stereo not shown) . Reported melting point? 170 to 173 °C

Entry under review: Clc1ccc(N2CC3CC2CN3)cc1 (stereo not shown) . Reported melting point? 120 to 130 °C

Entry under review: Cc1ccc(N2CC3CC2CN3)cc1 (stereo not shown) . Reported melting point? 130 to 140 °C

Entry under review: c1ccc(N2CC3CC2CN3)cc1 (stereo not shown) . Reported melting point? 120 to 130 °C

Entry under review: COc1cc(Br)c2c3c1OC1C[C@@H](O)C=CC31CCN(C)C2=O (mixture of isomers) . Reported melting point? 188 to 189 °C

Entry under review: O=[N+]([O-])c1ccccc1N1CC2CC1CN2Cc1ccccc1 (stereo not shown) . Reported melting point? 107 to 108 °C

Entry under review: Fc1ccc(N2CC3CC2CN3)cc1 (stereo not shown) . Reported melting point? 120 to 130 °C
